- experimental-target: Potassium voltage-gated channel subfamily A member 5 (Homo sapiens)
- Sequence (P22460 whole entry): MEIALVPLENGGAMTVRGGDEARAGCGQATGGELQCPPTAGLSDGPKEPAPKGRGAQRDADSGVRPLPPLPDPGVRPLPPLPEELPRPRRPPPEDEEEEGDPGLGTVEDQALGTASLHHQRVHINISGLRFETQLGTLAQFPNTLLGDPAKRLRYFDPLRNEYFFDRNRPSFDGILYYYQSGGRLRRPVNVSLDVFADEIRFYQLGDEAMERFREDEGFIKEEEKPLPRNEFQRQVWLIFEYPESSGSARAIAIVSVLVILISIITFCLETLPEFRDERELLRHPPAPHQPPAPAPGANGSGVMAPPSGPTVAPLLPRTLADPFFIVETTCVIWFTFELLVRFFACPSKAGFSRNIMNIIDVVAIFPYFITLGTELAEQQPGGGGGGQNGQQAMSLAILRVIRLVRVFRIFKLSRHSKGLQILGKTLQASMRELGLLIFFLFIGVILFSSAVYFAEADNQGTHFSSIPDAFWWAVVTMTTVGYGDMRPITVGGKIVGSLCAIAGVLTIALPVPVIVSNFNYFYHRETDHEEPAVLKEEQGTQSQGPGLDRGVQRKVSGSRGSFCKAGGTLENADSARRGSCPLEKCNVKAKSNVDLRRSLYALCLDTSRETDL
- protocol-description: Inhibition of human Kv1.5 channel expressed in mouse L929 cells
- Assay type: cell-based
- Design: concentration or dose not given beside the values
- condition-info: concentration not given here
Catalogue of inhibition readings, one per entry.
Answer format: numeric, % implied, no suffix.

Consider the reported inhibition for these molecules:
[[record]]
molecule = "CC1=C(C(=O)N2CCC[C@H]2c2nnn[nH]2)C(c2ccc(Cl)c(Cl)c2)n2nccc2N1 (stereo in doubt; 14a)"
data_value = 4

[[record]]
molecule = "CC1=C(C(=O)N2CCC[C@H]2c2cc(C)no2)C(c2ccc(Cl)c(Cl)c2)n2nccc2N1 (stereo in doubt; 20a)"
data_value = 21

[[record]]
molecule = "CC1=C(C(=O)N2CCC[C@H]2c2cc(C)on2)C(c2ccc(Cl)c(Cl)c2)n2nccc2N1 (stereo in doubt; 21a)"
data_value = 38


Request: Look up inhibition with Potassium voltage-gated channel subfamily A member 5 (Homo sapiens) for this molecule: CC1=C(C(=O)N2CCC[C@H]2c2nnc[nH]2)C(c2ccc(Cl)c(Cl)c2)n2nccc2N1 (stereo in doubt; 17a)
Result: 19

Request: Likewise for CC1=C(C(=O)N2CCC[C@H]2c2nc(C)no2)C(c2ccc(Cl)c(Cl)c2)n2nccc2N1 (stereo in doubt; 13a) ?
Result: 22

Request: Likewise for COC[C@H]1CCCN1C(=O)C1=C(C)Nc2ccnn2C1c1ccc(Cl)c(Cl)c1 (stereo partly drawn) ?
Result: 32

Request: Likewise for CC1=C(C(=O)N2CCC[C@H]2c2n[nH]c(=O)n2C)C(c2ccc(Cl)c(Cl)c2)n2nccc2N1 (stereo partly drawn) ?
Result: 11

Request: Likewise for CC1=C(C(=O)N2CCC[C@H]2c2nnc(N)s2)C(c2ccc(Cl)c(Cl)c2)n2nccc2N1 (stereo partly drawn) ?
Result: 4
